Assignment: determine reported remaining activity at 1 µM for the given compounds.
targetSystem: panel of 442 kinases (Homo sapiens, UniProt Q96RR4)
Construct: purchased Ambit Biosciences (scanMAXX KINOMEscan)
Sequence (Q96RR4 whole entry): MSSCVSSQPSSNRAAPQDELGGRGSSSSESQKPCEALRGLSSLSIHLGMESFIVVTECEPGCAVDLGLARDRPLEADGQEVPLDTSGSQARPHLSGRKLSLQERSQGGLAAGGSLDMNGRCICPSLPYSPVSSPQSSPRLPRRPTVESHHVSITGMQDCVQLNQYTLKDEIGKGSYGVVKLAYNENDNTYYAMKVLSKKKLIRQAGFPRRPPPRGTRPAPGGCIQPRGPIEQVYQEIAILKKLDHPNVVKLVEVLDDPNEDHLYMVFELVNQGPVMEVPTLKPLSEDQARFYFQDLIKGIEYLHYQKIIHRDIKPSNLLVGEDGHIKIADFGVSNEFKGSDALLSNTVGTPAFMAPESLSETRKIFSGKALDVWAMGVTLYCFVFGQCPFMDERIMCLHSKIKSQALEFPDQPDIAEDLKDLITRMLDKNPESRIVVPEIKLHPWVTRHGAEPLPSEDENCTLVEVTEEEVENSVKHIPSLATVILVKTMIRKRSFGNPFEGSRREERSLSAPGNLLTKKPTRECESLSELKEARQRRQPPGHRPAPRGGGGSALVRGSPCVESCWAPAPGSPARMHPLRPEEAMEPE
assayNotes: biochemical
Format: binding
setupConditions: CAMKK2; 1 µM; read-out: % of control at 1 µM
Response body: numeric value in %, unit text excluded.

Value of remaining activity at 1 µM reported for the compound `Cn1c(=O)n(-c2ccc(C(C)(C)C#N)cc2)c2c3cc(-c4cnc5ccccc5c4)ccc3ncc21` is 52

Value of remaining activity at 1 µM reported for the compound `FC(F)c1nc2ccccc2n1-c1nc(N2CCOCC2)nc(N2CCOCC2)n1` is 100

Value of remaining activity at 1 µM reported for the compound `Nc1cc(C(F)(F)F)c(-c2cc(N3CCOCC3)nc(N3CCOCC3)n2)cn1` is 100

Value of remaining activity at 1 µM reported for the compound `COc1ncc(-c2ccc3nccc(-c4ccnnc4)c3c2)cc1NS(=O)(=O)c1ccc(F)cc1F` is 71

###

Assignment: determine reported remaining activity at 1 µM for the given compounds.
targetSystem: panel of 442 kinases (Homo sapiens)
Construct: purchased Ambit Biosciences (scanMAXX KINOMEscan)
assayNotes: biochemical
Type: binding
setupConditions: CSNK1A1; 1 µM; read-out: % of control at 1 µM
Response body: numeric value in %, unit text excluded.

Value of remaining activity at 1 µM reported for the compound COc1ncc(-c2ccc3nccc(-c4ccnnc4)c3c2)cc1NS(=O)(=O)c1ccc(F)cc1F [Omipalisib] is 100

Value of remaining activity at 1 µM reported for the compound Cn1c(=O)n(-c2ccc(C(C)(C)C#N)cc2)c2c3cc(-c4cnc5ccccc5c4)ccc3ncc21 [Dactolisib] is 99

Value of remaining activity at 1 µM reported for the compound Nc1cc(C(F)(F)F)c(-c2cc(N3CCOCC3)nc(N3CCOCC3)n2)cn1 [Buparlisib] is 88

Value of remaining activity at 1 µM reported for the compound FC(F)c1nc2ccccc2n1-c1nc(N2CCOCC2)nc(N2CCOCC2)n1 [ZSTK474] is 91

###

targetSystem: panel of 442 kinases (Homo sapiens)
Construct: purchased Ambit Biosciences (scanMAXX KINOMEscan)
assayNotes: biochemical
Assay type: binding
setupConditions: kinase PAK7; 1 µM; read-out: % of control at 1 µM
Assignment: determine reported remaining activity at 1 µM for the given molecules.
Response body: numeric value in %, unit text excluded.

Value of remaining activity at 1 µM reported for the molecule `Cn1c(=O)n(-c2ccc(C(C)(C)C#N)cc2)c2c3cc(-c4cnc5ccccc5c4)ccc3ncc21` is 73

Value of remaining activity at 1 µM reported for the molecule `FC(F)c1nc2ccccc2n1-c1nc(N2CCOCC2)nc(N2CCOCC2)n1` is 100

Value of remaining activity at 1 µM reported for the molecule `Nc1cc(C(F)(F)F)c(-c2cc(N3CCOCC3)nc(N3CCOCC3)n2)cn1` is 78

Value of remaining activity at 1 µM reported for the molecule `COc1ncc(-c2ccc3nccc(-c4ccnnc4)c3c2)cc1NS(=O)(=O)c1ccc(F)cc1F` is 100

###

targetSystem: panel of 442 kinases (Homo sapiens, UniProt Q9UL54)
Construct: purchased Ambit Biosciences (scanMAXX KINOMEscan)
Sequence (Q9UL54 whole entry): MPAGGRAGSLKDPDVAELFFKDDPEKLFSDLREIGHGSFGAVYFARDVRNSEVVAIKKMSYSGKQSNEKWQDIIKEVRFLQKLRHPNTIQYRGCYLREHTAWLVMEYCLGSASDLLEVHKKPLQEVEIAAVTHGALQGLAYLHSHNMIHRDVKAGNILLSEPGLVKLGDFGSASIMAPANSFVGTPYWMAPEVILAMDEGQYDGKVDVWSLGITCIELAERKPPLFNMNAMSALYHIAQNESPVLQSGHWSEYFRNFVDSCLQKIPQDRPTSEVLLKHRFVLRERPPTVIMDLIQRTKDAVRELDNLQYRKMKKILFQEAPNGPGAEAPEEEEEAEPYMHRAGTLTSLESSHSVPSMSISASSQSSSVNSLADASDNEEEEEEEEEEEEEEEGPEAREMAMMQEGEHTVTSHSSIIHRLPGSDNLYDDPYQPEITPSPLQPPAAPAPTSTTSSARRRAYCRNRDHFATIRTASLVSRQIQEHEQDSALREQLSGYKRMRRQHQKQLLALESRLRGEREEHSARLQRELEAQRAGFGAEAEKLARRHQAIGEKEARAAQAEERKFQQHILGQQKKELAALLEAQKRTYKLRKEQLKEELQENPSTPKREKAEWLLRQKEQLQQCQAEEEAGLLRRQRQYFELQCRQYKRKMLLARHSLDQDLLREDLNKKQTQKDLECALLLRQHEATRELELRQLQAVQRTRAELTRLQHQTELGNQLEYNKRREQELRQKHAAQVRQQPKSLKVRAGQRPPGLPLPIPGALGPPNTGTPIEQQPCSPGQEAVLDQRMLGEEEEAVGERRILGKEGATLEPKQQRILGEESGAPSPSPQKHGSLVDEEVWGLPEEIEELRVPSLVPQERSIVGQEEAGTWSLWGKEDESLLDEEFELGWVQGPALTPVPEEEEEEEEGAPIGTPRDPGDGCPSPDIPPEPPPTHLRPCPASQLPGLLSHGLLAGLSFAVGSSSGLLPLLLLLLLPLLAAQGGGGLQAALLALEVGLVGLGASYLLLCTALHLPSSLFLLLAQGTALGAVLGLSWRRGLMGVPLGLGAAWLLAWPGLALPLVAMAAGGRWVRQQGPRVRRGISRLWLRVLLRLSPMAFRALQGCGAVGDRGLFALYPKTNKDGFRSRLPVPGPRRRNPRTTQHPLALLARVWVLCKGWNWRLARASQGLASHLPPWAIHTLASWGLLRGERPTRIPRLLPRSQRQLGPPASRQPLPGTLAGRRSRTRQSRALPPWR
assayNotes: biochemical
Format: binding
setupConditions: kinase TAOK2; 1 µM; read-out: TAOK2 (% of control at 1 µM)
Assignment: determine reported remaining activity at 1 µM for the given compounds.
Remember to quote the unit after the number.

Value of remaining activity at 1 µM reported for the compound FC(F)c1nc2ccccc2n1-c1nc(N2CCOCC2)nc(N2CCOCC2)n1 [ZSTK474] is 81%

Value of remaining activity at 1 µM reported for the compound Nc1cc(C(F)(F)F)c(-c2cc(N3CCOCC3)nc(N3CCOCC3)n2)cn1 [Buparlisib] is 87%

Value of remaining activity at 1 µM reported for the compound Cn1c(=O)n(-c2ccc(C(C)(C)C#N)cc2)c2c3cc(-c4cnc5ccccc5c4)ccc3ncc21 [Dactolisib] is 98%

Value of remaining activity at 1 µM reported for the compound COc1ncc(-c2ccc3nccc(-c4ccnnc4)c3c2)cc1NS(=O)(=O)c1ccc(F)cc1F [Omipalisib] is 100%
